test: NCI Yeast Anticancer Drug Screen. Data for the bub3 strain (AID 167); settings: S. cerevisiae bub3 mutant strain, at 5.0 µM (retest, dose inferred, filed as 0.5), active compounds read high
This is part of a sample that, as a whole, favours compounds with a hit. Of some 79,000 tested, about 15% had one in any assay.
measured_endpoint: growth inhibition (%)
Numbers only, in %.

Solved cases (4 shown):
>  <molecule>
Cc1c2ccncc2c(C)c2c1sc1ccccc12

>  <growth inhibition [%]>
55

$$$$
>  <molecule>
O=c1oc2c(-c3ccccc3)cccc2c(O)c1-c1ccccc1

>  <growth inhibition [%]>
-4

$$$$
>  <molecule>
CC1=C(C(=O)Nc2ccc(C)cc2C)C(c2cccc([N+](=O)[O-])c2)C(C(=O)Nc2ccc(C)cc2C)=C(C)N1

>  <growth inhibition [%]>
14

$$$$
>  <molecule>
CC(c1ccc(OCc2ccccc2)cc1)c1cc2c(cc1OCCO)OCO2 (configuration not stated)

>  <growth inhibition [%]>
6

$$$$

Give growth inhibition for each of the items listed below.
1. Cc1ccc(NC(=O)CCC(=O)CC(=O)C(C)(C)C)cc1C
2. CC(C)(CCCCC(C)(C)NCC1COc2ccccc2O1)NCC1COc2ccccc2O1 (configuration not stated)
3. COc1ccccc1NC(=O)/C(=C/n1c(=S)sc2ccccc21)C(C)=O
4. Cc1csc2c1C(=O)c1ccsc1C2=O
5. CCC(C)OC(=O)Nc1cccc(Cl)c1 (configuration not stated)
6. CS(=O)c1cc(=O)c2ccccc2s1 (configuration not stated)

1. -6
2. -15
3. -9
4. 86
5. -19
6. 0

* * *

Assay: NCI Yeast Anticancer Drug Screen. Data for the bub3 strain (AID 167)
Conditions: S. cerevisiae bub3 mutant strain, at 50.0 µM, active compounds read high
Protocol: Growth inhibition of yeast strains with defined genetic alterations is measured as a screen for potential anti-cancer activity. Selected strains with alterations in DNA damage repair or cell cycle control were exposed to compounds and growth inhibition was measured relative to vehicle treated controls. The strain used in this assay is bub3
Compounds without any hit were thinned out: in the full panel of roughly 79,000, 15% have a hit. Calls of active or inactive are those of the source. No stated cut-off is given here; in the data, active means growth inhibition above about 70%; inactive means the rest.
So I've got a bunch of molecules here, and I need their growth inhibition values.

Examples with answers:
>  <molecule>
CCCCN(CCC(=O)O)c1ccc(/C=C\c2ccnc3ccccc23)cc1

>  <result>
96.3% (active)

$$$$
>  <molecule>
CC(=O)OCC1OC(c2cccc3c2c2ccccc2n3S(=O)(=O)c2ccccc2)C(O)C1O (stereo unspecified)

>  <result>
7.8% (inactive)

$$$$
>  <molecule>
c1ccc(CCN(Cc2nc3ccccc3[nH]2)Cc2nc3ccccc3[nH]2)cc1

>  <result>
89.2% (active)

$$$$
>  <molecule>
CCOC(=O)/N=C(\N)SCc1ccccc1

>  <result>
49.5% (inactive)

$$$$
>  <molecule>
[N-]=[N+]=Nc1c([N+](=O)[O-])c(=O)n(-c2ccccc2)c2ccccc12

>  <result>
61% (inactive)

$$$$
>  <molecule>
N#CC1(C#N)C(C#N)(C#N)C12CCC2

>  <result>
70% (active)

$$$$
>  <molecule>
CNC(=O)OC1/C(C)=C\C(C)C(O)C(OC)CC(C)CC2=C(OC)C(=O)C=C(C2=O)N(C)C(=O)/C(C)=C/C=C\C1OC (stereo unspecified)

>  <result>
73.6% (active)

$$$$
>  <molecule>
Brc1ccc(CCNCCN2CCCCC2)cc1

>  <result>
61.1% (inactive)

$$$$

Working through the 3 molecules below one at a time, give growth inhibition for each.
1. CCC1CCCN1CCOC(=O)C(c1ccccc1)C1C=CCC1 (stereo unspecified)
2. C(=NCCC[Si]12OCCN(CCO1)CCO2)c1ccc(C=NCCC[Si]23OCCN(CCO2)CCO3)cc1
3. CCC(C)OC(=O)Nc1cccc(Cl)c1 (stereo unspecified)

["48.6% (inactive)", "76.5% (active)", "1.4% (inactive)"]

Could I get growth inhibition for every one of these entries?
1. O=C(Nc1ccc(Cl)c(Cl)c1Cl)Oc1c(Cl)c(Cl)c(Cl)c(Cl)c1Cl
2. COC(=O)c1c(C)cccc1C1CN=NC12Cc1ccc(C)c(C)c1C2=O (stereo unspecified)
3. O=C1CSC(c2ccc([N+](=O)[O-])cc2)N1c1ccc(-c2ccc(-n3c(-c4ccccc4)nc4ccccc4c3=O)cc2)cc1 (stereo unspecified)
4. O=C(c1ccccc1)C1Cc2ccccc2C1=O (stereo unspecified)
5. O=C(c1cccnc1)N(C1CCCCC1)C1CCCCC1
6. Cc1cc(C(O)(C(F)(F)F)C(F)(F)F)c(I)c(C(O)(C(F)(F)F)C(F)(F)F)c1
7. Cc1c(N=Nc2ccc(Br)cc2)c(-c2ccccc2)nn1C(=S)S
8. CCN(CC)CCCCNc1ccc(Cl)cc1

1: 98.5% (active); 2: 78.7% (active); 3: 95.2% (active); 4: 4.4% (inactive); 5: 0.35% (inactive); 6: 98.7% (active); 7: 86.6% (active); 8: 44.5% (inactive)

Hi there! I need growth inhibition for each item below, if you can.
1. O=C(Nc1ccc([N+](=O)[O-])cc1[N+](=O)[O-])C(=O)C(C(=O)c1ccc(Cl)c(Cl)c1)C1OC(=O)c2ccccc21 (stereo unspecified)
2. O=c1nc(-c2ccccc2)cc(-c2ccccc2O)[nH]1

["53.5% (inactive)", "16.9% (inactive)"]

* * *

test: NCI Yeast Anticancer Drug Screen. Data for the mec2-1 strain (AID 157); settings: S. cerevisiae mec2-1 strain, at 50.0 µM
This is part of a sample that, as a whole, favours compounds with a hit. Of some 79,000 tested, about 15% had one in any assay. The source made the active and inactive calls. No stated cut-off is given here; in the data, active means growth inhibition above about 70%; inactive means the rest.
Outcome field: choose from yes (1) for active, no (0) for inactive

>  <molecule>
Cc1ccc(S(=O)(=O)C(Br)CC(=O)c2ccccc2)cc1 (stereo unspecified)

>  <discrete_label>
yes (1)

$$$$
>  <molecule>
CCOC(=O)C(=N\Nc1cccc(C)c1C)/C(C)=N\NC(N)=S

>  <discrete_label>
no (0)

$$$$

Dear colleague, could you share the recorded outcome for `CCCCCCCCCCN` when you have a moment? no (0)

Ok, now `Cc1ccccc1NC(=S)N/N=C(/c1ccccc1)c1ccccn1` no (0)

Record: Clc1ccc(C2=C(c3ccccc3)C(c3ccc(Cl)cc3)N3C(=N[C@H]4CCCC[C@@H]43)N2)cc1 (stereo partly specified) yes (1)

Please do the same for `CN(C)CCCNc1cc(/C=C/c2ccc([N+](=O)[O-])cc2)nc2ccccc12` as well. no (0)

* * *

assay: NCI Yeast Anticancer Drug Screen. Data for the bub3 strain (AID 167); conditions: S. cerevisiae bub3 mutant strain, at 5.0 µM (retest, dose inferred, filed as 0.5), active compounds read high
The panel holds about 79,000 compounds, 15% with a hit somewhere; the sample as a whole holds those more often.
measured_endpoint: growth inhibition (%)
Give bare numbers, in %.

>  <compound>
OC1CCN(c2c3ccccc3nc3ccccc23)CC1

>  <measured_endpoint>
growth inhibition

>  <units_text>
%

>  <readout_number>
1

$$$$
>  <compound>
Fc1ccc(NC(=S)SCc2ccccc2)cc1F

>  <measured_endpoint>
growth inhibition

>  <units_text>
%

>  <readout_number>
6

$$$$
>  <compound>
COc1ccc2c(c1)CCCN2CCCCCCCCCCN1CCCCC1

>  <measured_endpoint>
growth inhibition

>  <units_text>
%

>  <readout_number>
35

$$$$
>  <compound>
COc1ccc2nc3cc(Cl)ccc3c(Nc3ccc(O)c(CN4CCN(C)CC4)c3)c2c1

>  <measured_endpoint>
growth inhibition

>  <units_text>
%

>  <readout_number>
8

$$$$
>  <compound>
CC(=O)OC1CC2Cc3ccccc3C3(O)COC213 (configuration not stated)

>  <measured_endpoint>
growth inhibition

>  <units_text>
%

>  <readout_number>
-7

$$$$

Give growth inhibition for each listed item.
1. CC(=O)OCCC1=CCC2CC1C2(C)C (configuration not stated)
2. CC(=O)OCc1cc2ccccc2nc1C(Br)(Br)Br

[-10, 62]

* * *

Can you tell me growth inhibition for the items I'm about to list?
experiment: NCI Yeast Anticancer Drug Screen. Data for the mec2-1 strain (AID 157); conditions: S. cerevisiae mec2-1 strain, at 50.0 µM, active compounds read high
The panel holds about 79,000 compounds, 15% with a hit somewhere; the sample as a whole holds those more often.
Numbers only, in %.

Known results for compounds:
>  <compound>
CCC(=NCCCCCCN=C(CC)c1cc(C)cc([N+](=O)[O-])c1O)c1cc(C)cc([N+](=O)[O-])c1O.[Fe]

>  <units_text>
%

>  <growth inhibition>
72.3

$$$$
>  <compound>
CC[C@H](CC[C@@H](C)C1CC[C@H]2[C@@H]3CCC4=CC(=O)CC[C@]4(C)[C@H]3CC[C@]12C)C(C)C (stereo partly specified)

>  <units_text>
%

>  <growth inhibition>
35.7

$$$$

Provide the reported growth inhibition of each entry below, same order.
1. O=c1c2ccccc2sc2c(CO)ccc(NCCN3CCCCC3)c12
2. O=C1CSC(=S)N1Cc1ccccc1Cl
3. Oc1c(Cl)cc(Cl)cc1Br
4. C/C=C(\CCC1NCCc2c1[nH]c1ccccc21)[Si](C)(C)C (stereo unspecified)
5. FC(F)(F)c1ccc(Cl)c(NC(=S)SC2CCCCC2)c1
6. C=CCSc1nc2ccccc2c(=O)n1Cc1ccco1
7. CC(=O)OC(OC(C)=O)c1ccc2ccc3cccc4ccc1c2c34

23.6
96.2
97.4
86.5
99.2
-12.2
45.8

// for each compound below, give its growth inhibition
1. COc1ccccc1CN1CCCN(Cc2ccccc2OC)C1c1ccccc1F
2. O=C1C2C3C=CC(C3)C2C(=O)C2C3C=CC(C3)C12 (stereo unspecified)

1: 43.5; 2: 99.3
